// data source = patent US7169931B2

# assay system: human TPO receptor (Homo sapiens)
# Sequence (P40238 26-635): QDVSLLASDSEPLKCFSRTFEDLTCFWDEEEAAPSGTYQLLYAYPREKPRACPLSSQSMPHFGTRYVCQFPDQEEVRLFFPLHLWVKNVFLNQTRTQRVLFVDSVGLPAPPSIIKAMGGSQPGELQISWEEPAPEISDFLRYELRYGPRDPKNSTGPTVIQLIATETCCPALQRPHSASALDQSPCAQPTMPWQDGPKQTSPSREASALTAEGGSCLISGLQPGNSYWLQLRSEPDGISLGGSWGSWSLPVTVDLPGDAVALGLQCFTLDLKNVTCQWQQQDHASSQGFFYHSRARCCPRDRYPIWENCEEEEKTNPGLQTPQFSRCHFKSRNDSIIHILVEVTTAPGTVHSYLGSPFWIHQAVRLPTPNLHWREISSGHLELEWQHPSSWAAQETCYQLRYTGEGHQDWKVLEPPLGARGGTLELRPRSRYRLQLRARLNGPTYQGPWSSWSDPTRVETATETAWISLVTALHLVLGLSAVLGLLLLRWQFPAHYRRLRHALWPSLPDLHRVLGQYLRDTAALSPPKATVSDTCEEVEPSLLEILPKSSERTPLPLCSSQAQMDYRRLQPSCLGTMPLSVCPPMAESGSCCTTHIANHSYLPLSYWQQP
# protocol description: Thrombopoietic activity: proliferation of TPO dependent BaF/hTPOR cells (WST-1)
# stated conditions: BaF/hTPOR cell line (BaF-B03 with human TPO receptor), without IL-3; 20 hours incubation + 4 hours WST-1, absorbance 450 nm; ED50 = half concentration of the concentration showing maximum thrombopoietic activity
measure name: EC50 (nM)

In [3]: df
Out[3]:
                                   molecule                       assay_system  scale_unit  recorded_number
0  CCCCOc1cccc(-c2csc(NC(=O)c3ccc4c(c3)CCC(C(=O)O)C4)n2)c1F (stereo not shown) [Compound B-16]  human TPO receptor (Homo sapiens)          nM               98
1  COC(=O)[C@@H]1Cc2ccc(C(=O)Nc3nc(-c4ccc(Cl)c(Cl)c4)cs3)cc2[C@H](O)C1 [Compound A-8]  human TPO receptor (Homo sapiens)          nM             2280
2  O=C(Nc1nc(-c2cccc(C(F)(F)F)c2)c(F)s1)c1ccc2c(c1)CCC(C(=O)O)C2 (stereo not shown) [Compound B-24]  human TPO receptor (Homo sapiens)          nM               53
3  CCCCCCCc1cccc(-c2csc(NC(=O)c3ccc4c(c3)CCC(C(=O)O)C4)n2)c1F (stereo not shown) [Compound B-26]  human TPO receptor (Homo sapiens)          nM               25
4  COC(=O)c1cc2ccc(C(=O)Nc3nc(-c4cccc(C(F)(F)F)c4F)cs3)cc2oc1=O [Compound D-8]  human TPO receptor (Homo sapiens)          nM             1930

(1) COC(=O)CC1Cc2ccc(C(=O)Nc3nc(-c4ccc(Cl)c(Cl)c4)cs3)cc2C1 (stereo not shown) [Compound A-15]
(2) O=C(Nc1nc(-c2cccc(C(F)(F)F)c2F)cs1)c1ccc2sc(C(=O)O)cc2c1 [Compound D-1]
Query: Which value of EC50 is smaller, the one for 1 or the one for 2 ? Response format: the label of the selected entry.
Reply: 2
(2: 21 nM, 1: 240 nM)

(a) O=C(O)C1=Cc2ccc(C(=O)Nc3nc(-c4cccc(C(F)(F)F)c4F)cs3)cc2C1 [Compound D-5]
(b) O=C(O)C1=Cc2ccc(C(=O)Nc3nc(-c4cccc(C(F)(F)F)c4F)cs3)cc2CC1 [Compound D-7]
Query: Which value of EC50 is smaller, the one for a or the one for b ? Response format: the label of the selected entry.
Reply: b
(b: 45 nM, a: 210 nM)

(a) COC(=O)c1ccc2cc(C(=O)Nc3nc(-c4ccc(Cl)c(Cl)c4)cs3)ccc2n1 [Compound A-22]
(b) CCCCCCCCc1cccc(-c2csc(NC(=O)c3ccc4c(c3)CCC(C(=O)O)C4)n2)c1F (stereo not shown) [Compound B-27]
Query: Of a and b , which one carries the higher reported EC50? Response format: the label of the selected entry.
Reply: a
(a: 190 nM, b: 24 nM)

(P) O=C(O)CC1Cc2ccc(C(=O)Nc3nc(-c4ccc(Cl)c(Cl)c4)cs3)cc2C1 (stereo not shown) [Compound A-16]
(Q) CCOC(=O)C1Cc2cc(C(=O)Nc3nc(-c4cccc(C(F)(F)F)c4F)cs3)ccc2C1=O [Compound D-6]
(R) O=C(O)c1ccc2cc(C(=O)Nc3nc(-c4cccc(C(F)(F)F)c4F)cs3)ccc2c1 [Compound D-2]
Query: Reorder the items by EC50, least to greatest. Please list each label once, in the requested order.
Reply: R, P, Q
(R: 19 nM, P: 230 nM, Q: 2540 nM)

(P) CC(C)Cc1cccc(-c2csc(NC(=O)c3ccc4c(c3)CCC(C(=O)O)C4)n2)c1F (stereo not shown) [Compound B-19]
(Q) O=C(Nc1nc(-c2ccc(C(F)(F)F)cc2F)cs1)c1ccc2c(c1)CCC(C(=O)O)C2 (stereo not shown) [Compound B-4]
Query: Which value of EC50 is smaller, the one for P or the one for Q ? Response format: the label of the selected entry.
Reply: P
(P: 48 nM, Q: 110 nM)
